Entry source: paper PMC5540273

# System: EPHB4
# CONDITIONS_USED: concentration: 1 μM, replicates: in singlicate; n = 1;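 note: KINOMEscan kinase panel screen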
condition met if %Inh is below 7%. condition not met if not; exact matches included in condition not met.

# COMPOUND, GROUP_LABEL
measured = [
    ("[2H]C([2H])(c1cccc(C(F)(F)F)c1C)n1ccn2c(=O)nc(N3CCOCC3)cc12 [GSK2336394]", "condition not met"),
    ("COc1ccc(Nc2nccc(N3CCC(NC(=O)Nc4cccc(C(C)=O)c4)C3)n2)cc1 (stereo not drawn) [GSK1379731]", "condition met"),
    ("CN(C1=C(c2ccccc2)C(=O)NC1=O)c1ccccc1 [SB-334860]", "condition not met"),
    ("Cc1nnc(-c2ccc3ncc(-c4ccc(S(C)=O)cc4)n3c2)o1 (stereo not drawn)", "condition met"),
    ("COc1ccc(Nc2nccc(N3CCC(NC(=O)Nc4cc(C)ccc4C)C3)n2)cc1 (stereo not drawn) [GSK1379741]", "condition not met"),
    ("Cc1ccc(C(=O)NCC(N)=O)cc1-n1c(C)cc(OCc2ccc(F)cc2F)c(Br)c1=O", "condition not met"),
]

Confirm or reject: %Inh of `COc1cc2c(cc1OCCN1CCN(C)CC1)ncc1c3ccc(C#N)cc3[nH]c21` lies strictly below 7%
condition met

Moving on to Nc1nccc(-c2c(-c3ccc(F)cc3)ncn2C2CCN(CC(F)(F)F)CC2)n1 [SB-236560]
condition met

----------
%Inh by entry:
# Test system: PRKD3
# CONDITIONS_USED: concentration: 1 μM, replicates: in singlicate; n = 1
Give your result in % as a bare value.

# COMPOUND, %Inh, %
data = [
    ("Cc1nnc(-c2ccc(C)c(-c3ccc(C(=O)Nc4ccc(NS(C)(=O)=O)cc4)cc3)c2)o1", 17),
]

Need %Inh of COc1ccc(Nc2nccc(N3CCC(NC(=O)Nc4cccc(C(C)=O)c4)C3)n2)cc1 (stereo not drawn) , thanks.
7

Moving on to `Cn1ccc2ncnc(Oc3ccc(NC(=O)Nc4ccncc4)c(Cl)c3)c21`
0

Can you check `CCc1ccnc(/C=C/c2n[nH]c3cc(Sc4ccccc4C(=O)NC)ccc23)c1` next?
0

Now give it for Cc1c(Cn2c(C)nn3c(=O)cc(N4CCOC(C)C4)nc23)cccc1C(F)(F)F (stereo not drawn) too.
22

Now consider `COc1cc2c(cc1OCCN1CCN(C)CC1)ncc1c3ccc(C#N)cc3[nH]c21` .
10

----------
# Test system: NEK1
# CONDITIONS_USED: concentration: 1 μM, replicates: in singlicate; n = 1
Listed below: %Inh values for each entry.
Numbers only; they are read as %.

For orientation, consider the following solved cases.
# COMPOUND, READOUT_VALUE
measured = [
    ("COc1cc2ncn(-c3cc(OCc4sccc4Cl)c(C(N)=O)s3)c2cc1OC", 13),
    ("O=C(NOCC1CC1)c1ccc(F)c(F)c1Nc1ccc(I)cc1Cl", 0),
    ("CNc1ncnc2[nH]ncc12", 0),
    ("O=c1cc(N2CCOCC2)nc2n(Cc3cccc(F)c3)ccn12", 0),
    ("COc1ccc(S(=O)(=O)NC2CCN(c3cc(C)nc(Nc4cccc(C#N)c4)n3)CC2)cc1.O=C(O)C(F)(F)F", 0),
    ("NS(=O)(=O)CCc1cccc(Nc2nccc(-c3c(-c4cccc(NC(=O)c5c(F)cccc5F)c4)nn4ccccc34)n2)c1", 0),
    ("Cc1c2ccc(N(C)c3ccnc(Nc4cccc(S(N)(=O)=O)c4)n3)cc2nn1Cc1ccccc1.Cl.Cl", 32),
    ("Fc1ccc(-c2nn3c(OCC(F)(F)F)cccc3c2-c2ccncc2)cc1", 2),
    ("C[C@@H](Oc1cc(-n2cnc3ccc(NC(=O)NC(C)(C)C)cc32)sc1C(N)=O)c1ccccc1Cl", 0),
    ("O=C(NCCNc1ccnc(Nc2ccc(F)cc2)n1)Nc1ccccc1F", 0),
]

Bench note: what %Inh did `CCn1cnc2c(N)ncnc21` show?
0

Ok, now `Cc1cccc(-c2nc(Nc3ccc4ncsc4c3)c3ccccc3n2)n1`
0

Next entry: `COCCNC(=O)c1ccc(-c2cc(C(=O)NC3CC3)cc(F)c2C)cc1`
0

Moving on to the next compound: `Nc1nc(-c2ccc3c(N)n[nH]c3c2)cc(N2CCCC2)n1`
12

Same question, `Cc1ccc(NC(=O)c2ccnc(N3CCN(C)CC3)c2)cc1-c1ccc(C(=O)NCC2CC2)cc1` this time
20

Similarly, Cc1nnc(-c2ccc3ncc(-c4ccc(S(C)=O)cc4)n3c2)o1 (stereo not drawn) ?
0

Note, next up: `CN1c2ccc(CNc3ccc(F)cc3)cc2-c2c(cnn2C)S1(=O)=O`
1

What about this compound? `COc1ccc(Nc2ncc(C#N)c(Nc3ccccc3C(N)=O)n2)cc1N1CCN(C)CC1.Cl`
91.6

Input `O=C(Nc1cccc(-c2nn3ncccc3c2-c2ccnc(Nc3cccc(C(F)(F)F)c3)n2)c1)c1c(F)cccc1F`
0

Query `c1ccc(-c2n[nH]cc2-c2ccnc3ccccc23)nc1` next
0

Cool, now `O=C(Nc1n[nH]c2cc(-c3cccc(F)c3)ccc12)C1CC1`
0
